# system name: human glucagon receptor (Homo sapiens)
# Construct: expressed in transfected cells; host or cells: BHK (baby hamster kidney) cells
# procedure text: Glucagon Binding Assay (III)
# assay setup: BHK cell membranes, WGA SPA beads, 125I-glucagon; read-out: Glu Bd Assay (III) IC50
property measured: IC50 (nM)

Here's what some known entries look like.
CCCCN(C)C(=O)c1cccc(NC(=O)N(Cc2ccc(C(=O)Nc3nn[nH]n3)cc2)c2ccc(C3CCCCC3)cc2)c1: 95
CC(C)(C)C1CCC(N(Cc2ccc(C(=O)Nc3nn[nH]n3)cc2)C(=O)CSCc2ccccc2)CC1 (stereo not drawn): 280
O=C(Nc1nn[nH]n1)c1ccc(CN(C(=O)Nc2ccc(Cl)c(Cl)c2)c2ccc(C3CCCCC3)cc2)cc1: 25
CC(C)(C)C1CCC(N(Cc2ccc(C(=O)Nc3nn[nH]n3)cc2)C(=O)Cc2ccc(-c3ccccc3)cc2)CC1 (stereo not drawn): 88
CCS(=O)(=O)c1cccc(NC(=O)N(Cc2ccc(C(=O)Nc3nn[nH]n3)cc2)c2ccc(OC(F)(F)F)cc2)c1: 1410
CCCCc1ccc(N(Cc2ccc(C(=O)Nc3nn[nH]n3)cc2)C(=O)Nc2cccc([N+](=O)[O-])c2)cc1: 75
CC(C)(C)C1CCC(N(Cc2ccc(C(=O)Nc3nn[nH]n3)cc2)C(=O)CCC(=O)c2ccccc2)CC1 (stereo not drawn): 805
O=C(O)CCNC(=O)c1ccc(CN(C(=O)Nc2ccc3c(c2)C(=O)N(CC2CC2)C3=O)c2ccc(C3CCCCC3)cc2)cc1: 7

[a] CC(C)Cc1ccc(C(=O)N(Cc2ccc(C(=O)NCCC(=O)O)cc2)c2ccc(C3CCCCC3)cc2)cc1
[b] CCCCOC(=O)c1ccc(NC(=O)N(Cc2ccc(C(=O)NCCC(=O)O)cc2)CC(C)c2ccccc2)cc1 (stereo not drawn)
[c] O=C(O)CCNC(=O)c1ccc(CN(C(=O)Nc2ccc(OC(F)(F)F)cc2)c2ccc(C(F)(F)F)cc2)cc1
[d] CC(C)(C)C1CCC(N(Cc2ccc(C(=O)Nc3nn[nH]n3)cc2)C(=O)/C=C/c2ccc(Cl)cc2)CC1 (stereo not drawn)
[e] CC(C)(C)c1cccc(NC(=O)N(Cc2ccc(C(=O)Nc3nn[nH]n3)cc2)c2ccc(C3CCCCC3)cc2)c1
Exercise: Sort by IC50, descending. Thanks in advance for listing the labels in the requested order.
Key: a, b, c, d, e

[P] CC(C)(C)C1CCC(N(Cc2ccc(C(=O)Nc3nn[nH]n3)cc2)C(=O)/C=C/c2cccs2)CC1 (stereo not drawn)
[Q] COc1ccc(NC(=O)N(Cc2ccc(C(=O)Nc3nn[nH]n3)cc2)c2ccc(C3CCCCC3)cc2)cc1S(C)(=O)=O
Exercise: Could you determine which record has the numerically smaller IC50? Candidates: P and Q # respond with the chosen item's label
Key: Q

[I] N#Cc1cccc(NC(=O)N(Cc2ccc(C(=O)Nc3nn[nH]n3)cc2)c2ccc(C3CCCCC3)cc2)c1
[II] COc1ccc(NC(=O)N(Cc2ccc(C(=O)NCCC(=O)O)cc2)C2CCC(C(C)(C)C)CC2)cc1 (stereo not drawn) [Example 31]
Exercise: For the pair I and II , which entry has the numerically smaller recorded IC50? Could you answer with the label of the item you picked?
Key: I

###

# system name: human glucagon receptor (Homo sapiens, UniProt P47871)
# Construct: expressed in transfected cells; host or cells: BHK (baby hamster kidney) cells
# Sequence (P47871 26-477): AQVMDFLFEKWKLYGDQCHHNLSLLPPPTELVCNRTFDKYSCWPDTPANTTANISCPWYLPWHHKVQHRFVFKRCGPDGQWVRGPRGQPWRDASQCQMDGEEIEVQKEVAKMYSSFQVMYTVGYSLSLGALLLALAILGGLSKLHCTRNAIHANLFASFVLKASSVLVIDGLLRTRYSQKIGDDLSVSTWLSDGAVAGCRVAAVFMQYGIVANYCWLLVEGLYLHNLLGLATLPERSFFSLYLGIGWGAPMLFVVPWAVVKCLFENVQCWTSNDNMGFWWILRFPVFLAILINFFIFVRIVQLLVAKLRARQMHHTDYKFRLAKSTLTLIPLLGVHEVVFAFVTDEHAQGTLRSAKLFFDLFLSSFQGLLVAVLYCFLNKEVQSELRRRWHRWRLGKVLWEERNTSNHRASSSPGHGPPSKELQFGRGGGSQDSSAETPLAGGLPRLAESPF
# procedure text: Glucagon Binding Assay (III)
# assay setup: BHK cell membranes, WGA SPA beads, 125I-glucagon; read-out: Glu Bd Assay (III) IC50
pIC50: −log10 of the molar value.
property measured: pIC50

Example compounds with recorded pIC50:
CCCCc1ccc(N(Cc2ccc(C(=O)Nc3nn[nH]n3)cc2)C(=O)Nc2ccc(OC(F)(F)F)cc2)cc1: 6.97
CCOc1ccc(N(Cc2ccc(C(=O)NCCC(=O)O)cc2)C(=O)Nc2ccc(OC(F)(F)F)cc2)cc1: 5.39
O=C(Nc1nn[nH]n1)c1ccc(CN(C(=O)NCc2cc(F)cc(C(F)(F)F)c2)c2ccc(C3CCCCC3)cc2)cc1: 7.19
CC(C)(C)C1CCC(N(Cc2ccc(C(=O)N(CCC(=O)O)CC3CC3)cc2)C(=O)Nc2ccc(OC(F)(F)F)cc2)CC1 (stereo not drawn): 5.38

[P] CS(=O)(=O)c1ccc(C(=O)N(Cc2ccc(C(=O)Nc3nn[nH]n3)cc2)c2ccc(C3CCCCC3)cc2)cc1
[Q] CC(C)(C)C1CCC(N(Cc2ccc(C(=O)Nc3nn[nH]n3)cc2)C(=O)/C=C/c2c(Cl)cccc2Cl)CC1 (stereo not drawn) [Example 503]
Exercise: Would you mind telling me which has the lower recorded pIC50 between P and Q ? Indicate your choice by writing its label.
Key: P

###

# system name: human glucagon receptor (Homo sapiens, UniProt P47871)
# Construct: expressed in transfected cells; host or cells: BHK (baby hamster kidney) cells
# procedure text: Glucagon Binding Assay (III)
# assay setup: BHK cell membranes, WGA SPA beads, 125I-glucagon; read-out: Glu Bd Assay (III) IC50
property measured: IC50 (µM)

[a] O=C(O)CCNC(=O)c1ccc(CN(C(=O)Nc2ccc(OC(F)(F)F)cc2)C2CCC(C3CC3)CC2)cc1 (centres unmarked)
[b] O=C(Nc1nn[nH]n1)c1ccc(CN(C(=O)Nc2ccc(Cl)c(Cl)c2)c2ccc(C3=CCCCC3)cc2)cc1
Exercise: Just curious, which one has the larger IC50 reading, a or b ? Select an item and report its label.
Key: a
(a: 0.32 µM, b: 0.025 µM)

###

# system name: human glucagon receptor (Homo sapiens, UniProt P47871)
# Construct: expressed in transfected cells; host or cells: BHK (baby hamster kidney) cells
# procedure text: Glucagon Binding Assay (III)
# assay setup: BHK cell membranes, WGA SPA beads, 125I-glucagon; read-out: Glu Bd Assay (III) IC50
property measured: IC50 (nM)

O=C(Nc1nn[nH]n1)c1ccc(CN(C(=O)Nc2ccccc2OC(F)(F)F)c2ccc(C3=CCCCC3)cc2)cc1 [Example 351]: 368

[A] O=C(Nc1nn[nH]n1)c1ccc(CN(C(=O)Nc2cccc(SC(F)(F)F)c2)c2ccc(C3CCCCC3)cc2)cc1 [Example 278]
[B] O=C(Nc1nn[nH]n1)c1ccc(CN(C(=O)Nc2ccccc2OC(F)(F)F)c2ccc(C3CCCCC3)cc2)cc1 [Example 350]
Exercise: Returns the identifier with the smallest measured IC50 among A and B . Could you answer with the label of the item you picked?
Key: A
(A: 88 nM, B: 271 nM)

###

# system name: human glucagon receptor (Homo sapiens, UniProt P47871)
# Construct: expressed in transfected cells; host or cells: BHK (baby hamster kidney) cells
# procedure text: Glucagon Binding Assay (III)
# assay setup: BHK cell membranes, WGA SPA beads, 125I-glucagon; read-out: Glu Bd Assay (III) IC50
pIC50: −log10 of the molar value.
property measured: pIC50

O=C(Nc1nn[nH]n1)c1ccc(CN(C(=O)c2ccc(Cc3ccccc3)cc2)c2ccc(C3CCCCC3)cc2)cc1: 6.70

[I] O=C(O)CCNC(=O)c1ccc(CN(C(=O)Nc2ccc(OC(F)(F)F)cc2)C2CCC(Oc3ccccc3)CC2)cc1 (stereo not shown)
[II] O=C(O)CCNC(=O)c1ccc(CN(C(=O)Nc2ccc(OC(F)(F)F)cc2)C(=O)Nc2ccc(OC(F)(F)F)cc2)cc1
Exercise: Could you check which of I and II has a smaller value for pIC50? Respond using the label that marks the chosen record.
Key: II
(II: 6.03, I: 6.28)

[P] CC(C)N1C(=O)c2ccc(NC(=O)N(Cc3ccc(C(=O)Nc4nn[nH]n4)cc3)C3CCC(C(C)(C)C)CC3)cc2C1=O (stereo not shown)
[Q] O=C(Nc1nn[nH]n1)c1ccc(CN(C(=O)c2ccc(C3CCCCC3)cc2)c2ccc(C3CCCCC3)cc2)cc1
[R] O=C(O)CCNC(=O)c1ccc(CN(C(=O)c2ccc(Cc3ccccc3)cc2)c2ccc(C3CCCCC3)cc2)cc1
Exercise: Hello, I need these entries ordered by pIC50, highest reading first. Thanks! Answer format: the labels, in the requested order.
Key: P, Q, R

###

# system name: human glucagon receptor (Homo sapiens)
# Construct: expressed in transfected cells; host or cells: BHK (baby hamster kidney) cells
# procedure text: Glucagon Binding Assay (III)
# assay setup: BHK cell membranes, WGA SPA beads, 125I-glucagon; read-out: Glu Bd Assay (III) IC50
property measured: IC50 (nM)

Example compounds with recorded IC50:
CC(C)(C)C1CCC(N(Cc2ccc(C(=O)NCCC(=O)O)cc2)C(=O)Oc2ccc([N+](=O)[O-])cc2)CC1 (centres unmarked) [Example 399]: 120
CC(=O)c1ccc(NC(=O)N(Cc2ccc(C(=O)NCCC(=O)O)cc2)C2CCC(C(C)(C)C)CC2)cc1 (centres unmarked) [Example 60]: 83
CC(C)(C)C1CCC(N(Cc2ccc(C(=O)Nc3nn[nH]n3)cc2)C(=O)c2ccc(C3CCCCC3)cc2)CC1 (centres unmarked) [Example 488]: 98

[P] O=C(Nc1nn[nH]n1)c1ccc(CN(C(=O)NCc2ccccc2OC(F)(F)F)c2ccc(C3CCCCC3)cc2)cc1 [Example 348]
[Q] C[C@@H](NC(=O)N(Cc1ccc(C(=O)Nc2nn[nH]n2)cc1)c1ccc(C2=CCCCC2)cc1)c1ccc(Br)cc1 [Example 355]
Exercise: Given P and Q , report the one with the higher recorded IC50. Which one? Tell me its label.
Key: Q
